system: 5-hydroxytryptamine receptor 2A (Homo sapiens, UniProt P28223)
Sequence (P28223 whole entry): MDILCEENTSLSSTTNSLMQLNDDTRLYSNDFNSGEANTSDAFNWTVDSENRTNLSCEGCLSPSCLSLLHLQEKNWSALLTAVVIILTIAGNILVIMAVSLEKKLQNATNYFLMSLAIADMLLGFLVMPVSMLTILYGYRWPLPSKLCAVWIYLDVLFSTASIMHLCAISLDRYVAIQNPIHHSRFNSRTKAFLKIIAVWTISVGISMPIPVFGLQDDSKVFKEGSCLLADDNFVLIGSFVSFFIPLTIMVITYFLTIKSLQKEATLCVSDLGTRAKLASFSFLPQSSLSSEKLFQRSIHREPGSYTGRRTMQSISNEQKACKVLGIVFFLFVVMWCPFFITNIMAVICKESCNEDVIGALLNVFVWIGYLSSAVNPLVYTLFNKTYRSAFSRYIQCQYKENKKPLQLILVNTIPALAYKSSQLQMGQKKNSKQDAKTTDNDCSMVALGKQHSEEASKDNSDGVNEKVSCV
protocol.notes: Displacement of [3H]Ketanserin from human recombinant 5HT2A receptor expressed in CHOK1 cells after 60 mins
observable: IC50 (nM)

>  <compound.smiles>
CN1CCC(N(C)S(=O)(=O)c2ccc(C#N)cc2)CC1

>  <bound.type>
>

>  <result.number>
10000

$$$$
>  <compound.smiles>
CN1CCC(N(C)S(=O)(=O)c2ccc([N+](=O)[O-])cc2)CC1

>  <bound.type>
>

>  <result.number>
10000

$$$$
>  <compound.smiles>
Cc1ccccc1S(=O)(=O)N(C)C1CCN(C)CC1

>  <bound.type>
=

>  <result.number>
1550

$$$$
>  <compound.smiles>
CN1CCC(N(C)S(=O)(=O)c2ccc(-c3ccccc3)cc2)CC1

>  <bound.type>
=

>  <result.number>
281

$$$$
>  <compound.smiles>
Cc1cccc(S(=O)(=O)N(C)C2CCN(C)CC2)c1

>  <bound.type>
=

>  <result.number>
3450

$$$$
>  <compound.smiles>
CN1CCC(N(C)S(=O)(=O)c2cccc3ccsc23)CC1

>  <bound.type>
>

>  <result.number>
10000

$$$$
>  <compound.smiles>
CC(C)c1ccc(S(=O)(=O)N(C)C2CCN(C)CC2)cc1

>  <bound.type>
=

>  <result.number>
161

$$$$
>  <compound.smiles>
CCc1ccc(S(=O)(=O)N(C)C2CCN(C)CC2)cc1

>  <bound.type>
=

>  <result.number>
452

$$$$
>  <compound.smiles>
CN1CCC(N(C)S(=O)(=O)c2ccc(I)cc2)CC1

>  <bound.type>
=

>  <result.number>
160

$$$$
>  <compound.smiles>
CN1CCC(N(C)S(=O)(=O)c2ccccc2F)CC1

>  <bound.type>
>

>  <result.number>
10000

$$$$
>  <compound.smiles>
CN1CCC(N(C)S(=O)(=O)c2ccc(OC(F)(F)F)cc2)CC1

>  <bound.type>
=

>  <result.number>
2450

$$$$
